Target: KHK-C (Homo sapiens (Human), UniProt P50053)
Sequence (P50053 whole entry): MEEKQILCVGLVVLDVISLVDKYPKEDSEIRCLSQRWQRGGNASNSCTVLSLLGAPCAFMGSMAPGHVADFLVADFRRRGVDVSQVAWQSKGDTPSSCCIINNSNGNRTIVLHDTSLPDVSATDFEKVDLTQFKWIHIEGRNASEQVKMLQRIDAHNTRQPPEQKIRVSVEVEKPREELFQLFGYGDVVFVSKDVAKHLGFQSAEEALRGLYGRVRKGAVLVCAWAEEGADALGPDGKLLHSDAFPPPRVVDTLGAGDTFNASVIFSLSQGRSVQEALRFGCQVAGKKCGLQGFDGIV
Test: Assay C: KHK assay at high fructose (8 mM) and ATP (2 mM), 1 nM KHK-C
Format: biochemical
Details: read-out: IC50 (nM) Assay C 1 nM KHK-C, 8 mM fructose, 2 mM ATP, avg of (#) runs
MEASURED_QUANTITY: IC50

{"SMILES_TEXT": "Cc1c(N2C[C@@H]3[C@@H](CC(=O)O)[C@@H]3C2)nc(N2C[C@@H](O)[C@@H]2C)nc1C(F)(F)F", "MEASURED_ON": "KHK-C (Homo sapiens (Human), UniProt P50053)", "IC50": "11 nM"}

Okay, next one:
## Input Give the reported IC50 for C[C@H]1[C@H](O)CN1c1nc(N2C[C@@H]3[C@@H](CC(=O)O)[C@@H]3C2)c(F)c(C(C)(F)F)c1C#N (system: KHK-C (Homo sapiens (Human), UniProt P50053)).
## Output 2.6 nM

----------
Target: KHK-C (Homo sapiens (Human), UniProt P50053)
Assay: Assay A: coupled-enzyme KHK absorbance assay, 10 nM KHK-C
Settings: read-out: IC50 (nM) Assay A (Table 4); 10 nM KHK-C, 0.8 mM fructose, 0.2 mM ATP; avg of (#) runs
MEASURED_QUANTITY: IC50 (nM)
Give the value in nM but do not write nM after it.

{"COMPOUND": "CC1CCCN1c1nc(N2C[C@@H]3[C@@H](CC(=O)O)[C@@H]3C2)cc(C(F)F)c1C#N (stereo partly shown) [Example 38]", "IC50, nM": 25.3}
{"COMPOUND": "C[C@H]1[C@H](O)CN1c1cc(N2C[C@@H]3[C@@H](CC(=O)O)[C@@H]3C2)cc(C(C)(F)F)n1 [Example 34]", "IC50, nM": 331}
{"COMPOUND": "Cc1c(N2C[C@@H]3[C@@H](CC(=O)O)[C@@H]3C2)nc(N2CC[C@@H]2C)nc1C(F)(F)F [Example 42]", "IC50, nM": 8.8}
{"COMPOUND": "C[C@H]1[C@H](O)CN1c1nc(C(F)F)c(Cl)c(N2C[C@@H]3[C@@H](CC(=O)O)[C@@H]3C2)n1 [Example 15]", "IC50, nM": 19.1}

## Input Query: IC50; subject: C[C@H]1[C@H](O)CN1c1nc(N2C[C@@H]3[C@@H](CC(=O)O)[C@@H]3C2)c(C#N)c(C(F)(F)F)n1 [Example 53]
## Output 21

## Input Query: IC50; subject: C[C@@H]1N(c2nc(N3C[C@@H]4[C@H](C3)[C@H]4CS(C)(=O)=O)c(Cl)c(C(F)(F)F)n2)C[C@@]1(C)O [Example 48]
## Output 1360

## Input Query: IC50; subject: Cc1c(N2C[C@@H]3[C@@H](CC(=O)O)[C@@H]3C2)nc(N2C[C@@H](O)[C@@H]2C)nc1C(F)(F)F [Example 24]
## Output 9.7

----------
Target: KHK-C (Homo sapiens (Human), UniProt P50053)
Assay: Assay A: coupled-enzyme KHK absorbance assay, 10 nM KHK-C
Conditions: read-out: IC50 (nM) Assay A 10 nM KHK-C; 10 nM KHK-C, 0.8 mM fructose, 0.2 mM ATP; avg of (#) runs
Kindly note that classification relies on IC50 with these boundaries: group A (below 10 nM), group B (10 nM to below 100 nM), group C (100 nM or more)

{"SMILES_TEXT": "Cc1c(C(F)F)nc(N2CC[C@@H]2C)nc1N1C[C@@H]2[C@@H](CC(=O)O)[C@@H]2C1", "CATEGORY": "group B"}
{"SMILES_TEXT": "C[C@H]1[C@H](O)CN1c1nc(N2C[C@@H]3[C@@H](CC(=O)O)[C@@H]3C2)c(F)c(C(C)(F)F)c1C#N", "CATEGORY": "group A"}
{"SMILES_TEXT": "C[C@H]1CCN1c1nc(C(F)F)c(Cl)c(N2C[C@@H]3[C@@H](CC(=O)O)[C@@H]3C2)n1", "CATEGORY": "group B"}

## Input Record C[C@H]1[C@H](O)CN1c1nc(N2C[C@@H]3[C@@H](CC(=O)O)[C@@H]3C2)c(Cl)c(C(F)(F)F)c1C#N — which class?
## Output group A

## Input Record C[C@H]1[C@H](O)CN1c1cc(N2C[C@@H]3[C@@H](CC(=O)O)[C@@H]3C2)c(Cl)c(C(C)(F)F)n1 — which class?
## Output group C

## Input Record C[C@H]1[C@H](O)CN1c1nc(N2C[C@@H]3[C@@H](CC(=O)O)[C@@H]3C2)c(C2CC2)c(C(F)(F)F)n1 — which class?
## Output group C

## Input Record CCc1c(N2C[C@@H]3[C@@H](CC(=O)O)[C@@H]3C2)nc(N2C[C@@H](O)[C@@H]2C)nc1C(F)(F)F — which class?
## Output group B

## Input Record COc1c(N2C[C@@H]3[C@@H](CC(=O)O)[C@@H]3C2)nc(N2C[C@@H](O)[C@@H]2C)nc1C(F)(F)F — which class?
## Output group B

## Input Record O=C(O)C[C@@H]1[C@H]2CN(c3cc(C(F)(F)F)nc(C4CCC4)n3)C[C@@H]12 — which class?
## Output group C

## Input Record C[C@H]1CCN1c1nc(N2C[C@@H]3[C@@H](CC(=O)NS(C)(=O)=O)[C@@H]3C2)cc(C(F)(F)F)n1 — which class?
## Output group C

## Input Record C[C@H]1CCN1c1nc(N2C[C@@H]3[C@@H](Cc4nnn[nH]4)[C@@H]3C2)cc(C(F)(F)F)n1 — which class?
## Output group C

## Input Record Cc1c(N2C[C@@H]3[C@@H](CC(=O)O)[C@@H]3C2)nc(N2C[C@@H](O)[C@@H]2C)nc1C(F)(F)F — which class?
## Output group A

## Input Record Cc1c(N2C[C@@H]3[C@@H](CC(=O)O)[C@@H]3C2)nc(N2CC[C@@H]2C)nc1C(F)(F)F — which class?
## Output group A

----------
Target: KHK-A (Homo sapiens (Human))
Sequence (P50053 other isoform, or with tags, fused parts or gaps): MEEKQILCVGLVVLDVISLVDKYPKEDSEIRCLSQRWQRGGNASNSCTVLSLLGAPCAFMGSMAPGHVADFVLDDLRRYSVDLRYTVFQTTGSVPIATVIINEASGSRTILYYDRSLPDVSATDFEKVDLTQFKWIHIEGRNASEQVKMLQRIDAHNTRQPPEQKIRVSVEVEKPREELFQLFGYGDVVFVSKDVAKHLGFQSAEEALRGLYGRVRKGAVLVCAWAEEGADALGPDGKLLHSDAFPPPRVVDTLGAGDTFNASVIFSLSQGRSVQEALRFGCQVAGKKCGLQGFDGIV
Assay: Assay D: KHK assay with 1 nM human KHK-A
Details: read-out: IC50 (nM) Assay D 1 nM KHK-A, 8 mM fructose, 0.2 mM ATP, avg of (#) runs
MEASURED_QUANTITY: IC50 (nM)
Give the value in nM but do not write nM after it.

Sample answers from the record:
{"COMPOUND": "C[C@H]1CCN1c1nc(C(F)F)c(Cl)c(N2C[C@@H]3[C@@H](CC(=O)O)[C@@H]3C2)n1 [Example 40]", "NUMERIC_RESULT": 37.9}
{"COMPOUND": "Cc1c(C(F)F)nc(N2CC[C@@H]2C)nc1N1C[C@@H]2[C@@H](CC(=O)O)[C@@H]2C1 [Example 43]", "NUMERIC_RESULT": 48.6}
{"COMPOUND": "Cc1c(N2C[C@@H]3[C@@H](CC(=O)O)[C@@H]3C2)nc(N2CC[C@@H]2C)nc1C(F)(F)F [Example 42]", "NUMERIC_RESULT": 10.5}

Okay, next one:
## Input Query: IC50; subject: Cc1c(N2C[C@@H]3[C@@H](CC(=O)O)[C@@H]3C2)nc(N2C[C@@H](O)[C@@H]2C)nc1C(F)(F)F [Example 24]
## Output 12.1

----------
Target: KHK-C (Homo sapiens (Human), UniProt P50053)
Assay: Assay A: coupled-enzyme KHK absorbance assay, 10 nM KHK-C
Settings: read-out: IC50 (nM) Assay A (Table 4); 10 nM KHK-C, 0.8 mM fructose, 0.2 mM ATP; avg of (#) runs
MEASURED_QUANTITY: IC50 (nM)
Give the value in nM but do not write nM after it.

## Input Query: IC50; subject: C[C@H]1[C@H](O)CN1c1nc(N2C[C@@H]3[C@@H](CC(=O)O)[C@@H]3C2)c(Cl)c(C(C)(F)F)n1
## Output 16.7

## Input Query: IC50; subject: C[C@H]1[C@H](O)CN1c1nc(C(F)F)cc(N2C[C@@H]3[C@@H](CC(=O)O)[C@@H]3C2)n1
## Output 152

## Input Query: IC50; subject: C[C@H]1C[C@H](O)CN1c1nc(N2C[C@@H]3[C@@H](CC(=O)O)[C@@H]3C2)cc(C(F)(F)F)c1C#N
## Output 11.6

## Input Query: IC50; subject: O=C(O)C[C@@H]1[C@H]2CN(c3cc(C(F)(F)F)nc(N4CCC4)n3)C[C@@H]12
## Output 619

## Input Query: IC50; subject: C[C@H]1[C@H](O)CN1c1nc(N2C[C@@H]3[C@@H](CC(=O)O)[C@@H]3C2)nc(C(F)(F)F)c1C#N
## Output 19

Cited source for all entries: patent US10174007B2
